Origin of values: patent US20100260765A1

- assayed.system: KDR (human, UniProt P35968 20-1356)
- Sequence (P35968 20-1356): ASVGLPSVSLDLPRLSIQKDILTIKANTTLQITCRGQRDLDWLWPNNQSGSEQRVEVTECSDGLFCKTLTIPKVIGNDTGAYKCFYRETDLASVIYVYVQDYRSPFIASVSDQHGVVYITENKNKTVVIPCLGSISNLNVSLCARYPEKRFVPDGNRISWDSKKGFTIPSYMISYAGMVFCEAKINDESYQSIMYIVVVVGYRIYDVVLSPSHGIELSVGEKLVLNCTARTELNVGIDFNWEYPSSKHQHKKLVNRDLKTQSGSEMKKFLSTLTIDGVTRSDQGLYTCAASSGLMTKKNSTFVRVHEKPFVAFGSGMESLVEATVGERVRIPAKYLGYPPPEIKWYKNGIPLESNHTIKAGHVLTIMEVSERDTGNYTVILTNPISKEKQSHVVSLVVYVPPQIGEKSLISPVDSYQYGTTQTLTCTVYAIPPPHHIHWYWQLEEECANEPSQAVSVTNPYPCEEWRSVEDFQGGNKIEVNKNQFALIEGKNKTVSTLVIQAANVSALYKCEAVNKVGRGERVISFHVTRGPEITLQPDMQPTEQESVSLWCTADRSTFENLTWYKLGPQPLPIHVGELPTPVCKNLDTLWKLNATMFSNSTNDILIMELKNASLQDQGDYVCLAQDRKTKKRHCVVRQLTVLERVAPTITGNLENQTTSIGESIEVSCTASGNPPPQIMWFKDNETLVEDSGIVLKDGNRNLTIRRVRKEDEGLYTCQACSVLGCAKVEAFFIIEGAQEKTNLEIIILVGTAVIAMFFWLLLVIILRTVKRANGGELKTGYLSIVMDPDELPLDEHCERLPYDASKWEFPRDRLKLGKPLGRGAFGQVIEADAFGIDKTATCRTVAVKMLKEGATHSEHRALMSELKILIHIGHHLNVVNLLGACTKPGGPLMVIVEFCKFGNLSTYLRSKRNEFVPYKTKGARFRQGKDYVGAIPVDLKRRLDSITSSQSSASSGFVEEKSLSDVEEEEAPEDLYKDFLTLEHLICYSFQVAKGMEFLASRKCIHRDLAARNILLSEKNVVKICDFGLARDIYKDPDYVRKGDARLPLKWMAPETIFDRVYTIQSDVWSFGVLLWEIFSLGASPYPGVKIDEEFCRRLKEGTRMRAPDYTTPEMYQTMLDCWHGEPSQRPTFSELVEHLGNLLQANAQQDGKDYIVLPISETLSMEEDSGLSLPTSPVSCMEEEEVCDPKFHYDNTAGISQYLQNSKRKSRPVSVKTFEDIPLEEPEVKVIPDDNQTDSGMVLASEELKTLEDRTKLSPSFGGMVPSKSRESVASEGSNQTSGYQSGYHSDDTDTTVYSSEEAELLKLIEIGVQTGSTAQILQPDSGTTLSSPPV
- assay.notes: cell-based or functional assay
Classification field: enter T for Activity at 133 nM (% Inhibition), 1-hour Pre-incubation at 4° C., N = 2 values not below 80%, F for values below it.

Task: Confirm if Activity at 133 nM (% Inhibition), 1-hour Pre-incubation at 4° C., N = 2 reported for the binder 29A3 (antibody, V domains shown) VH: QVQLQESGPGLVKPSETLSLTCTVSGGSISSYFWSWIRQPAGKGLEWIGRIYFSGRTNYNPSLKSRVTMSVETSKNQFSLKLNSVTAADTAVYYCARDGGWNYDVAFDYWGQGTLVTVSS VL: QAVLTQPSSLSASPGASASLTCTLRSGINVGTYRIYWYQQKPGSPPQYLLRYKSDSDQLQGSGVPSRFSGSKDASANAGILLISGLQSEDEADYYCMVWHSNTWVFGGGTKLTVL is 80% or above.
Result: F

Task: Now consider 32F4 (antibody, V domains shown) VH: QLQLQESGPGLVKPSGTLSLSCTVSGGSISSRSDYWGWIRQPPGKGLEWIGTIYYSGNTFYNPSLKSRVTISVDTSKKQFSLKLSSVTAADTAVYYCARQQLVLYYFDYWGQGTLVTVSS VL: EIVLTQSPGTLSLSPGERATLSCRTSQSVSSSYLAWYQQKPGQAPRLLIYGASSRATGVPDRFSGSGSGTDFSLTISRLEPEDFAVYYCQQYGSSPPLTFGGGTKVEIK .
Result: F

Task: Now consider 33B1 (antibody, V domains shown) VH: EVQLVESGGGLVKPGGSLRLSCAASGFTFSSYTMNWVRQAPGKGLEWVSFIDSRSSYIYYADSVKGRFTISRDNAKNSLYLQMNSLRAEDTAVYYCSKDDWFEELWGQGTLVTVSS VL: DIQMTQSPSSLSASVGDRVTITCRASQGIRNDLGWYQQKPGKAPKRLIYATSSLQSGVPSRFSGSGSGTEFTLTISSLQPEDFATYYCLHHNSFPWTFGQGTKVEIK .
Result: T

Task: Now consider 30F6 (antibody, V domains shown) VH: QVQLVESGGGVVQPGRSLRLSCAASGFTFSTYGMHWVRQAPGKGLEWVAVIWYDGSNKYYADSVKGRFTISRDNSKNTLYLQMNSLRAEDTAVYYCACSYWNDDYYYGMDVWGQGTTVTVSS VL: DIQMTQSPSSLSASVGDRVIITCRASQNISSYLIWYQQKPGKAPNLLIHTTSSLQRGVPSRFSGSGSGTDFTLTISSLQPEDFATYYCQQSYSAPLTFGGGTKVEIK .
Result: T

Task: Now consider 33C3 (antibody, V domains shown) VH: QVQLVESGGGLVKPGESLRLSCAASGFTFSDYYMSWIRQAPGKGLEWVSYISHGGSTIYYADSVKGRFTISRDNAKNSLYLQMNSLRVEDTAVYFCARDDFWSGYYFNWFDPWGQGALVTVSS VL: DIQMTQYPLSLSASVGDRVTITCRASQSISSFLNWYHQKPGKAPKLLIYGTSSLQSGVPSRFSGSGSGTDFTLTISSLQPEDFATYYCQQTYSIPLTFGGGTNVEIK .
Result: T
